target: NOS1, P29475; assay: holdup assay; design: key: below the threshold = too weak to quantify, mostly under pKd 3.1 to 4; details: plain residues with an end cap or a label only (N-terminal biotin on a linker: ahx)
Sequence (P29475 9-101): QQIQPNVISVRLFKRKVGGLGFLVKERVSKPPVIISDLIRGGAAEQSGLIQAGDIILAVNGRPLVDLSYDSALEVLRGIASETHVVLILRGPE
parameter measured: pKd

binder="TEAKLTETNA [MYO18A, Q92614]" result="below the threshold"
binder="QNTDDVQTSF [ACE2, Q9BYF1]" result="below the threshold"
binder="TESNLQTSSC [CGN, Q9P2M7]" result="below the threshold"
